pKi: −log10 of the molar value.
Measured pKi (PKC alpha kinase (Homo sapiens))

# COMPOUND, SYSTEM_NAME, pKi
measured = [
    ("Cc1cc(-c2n[nH]c3ncccc23)nc(N2CCNCC2)c1 [Compound 93]", "PKC alpha kinase (Homo sapiens)", "< 5.90"),
    ("CC(F)(F)CC1CN(c2ccc(F)c(-c3n[nH]c4ncccc34)n2)CCN1 (stereo not drawn) [Compound 155]", "PKC alpha kinase (Homo sapiens)", "< 5.90"),
    ("NC1(C2CCCN(c3ccc(F)c(-c4n[nH]c5ncccc45)n3)C2)CCCC1 (stereo not drawn) [Compound 344]", "PKC alpha kinase (Homo sapiens)", "< 5.90"),
    ("CNC1CCN(c2cccc(-c3n[nH]c4ncccc34)n2)C1 (stereo not drawn) [Compound 24]", "PKC alpha kinase (Homo sapiens)", "< 5.90"),
    ("CC(C)(N)C1CCCN(c2ccc(F)c(-c3n[nH]c4ncccc34)n2)C1 (stereo not drawn) [Compound 310]", "PKC alpha kinase (Homo sapiens)", "> 5.55"),
    ("CNC(=O)CC1CN(c2ccc(C(F)(F)F)c(-c3n[nH]c4ncccc34)n2)CCN1 (stereo not drawn) [Compound 210]", "PKC alpha kinase (Homo sapiens)", "< 5.90"),
    ("O=C1CN(c2ccc(F)c(-c3n[nH]c4ncccc34)n2)CCN1 [Compound 255]", "PKC alpha kinase (Homo sapiens)", "< 5.90"),
    ("CC(C)CC1(O)CCCN(c2ccc(F)c(-c3n[nH]c4ncccc34)n2)C1 (stereo not drawn) [Compound 295]", "PKC alpha kinase (Homo sapiens)", "< 5.90"),
    ("Cc1ccccc1C1CN(c2cccc(-c3n[nH]c4ncccc34)n2)CCN1 (stereo not drawn) [Compound 32]", "PKC alpha kinase (Homo sapiens)", "> 6.30"),
    ("CC(C)C(C)(O)C1CN(c2cncc(-c3n[nH]c4ncccc34)n2)CCN1 (stereo not drawn) [Compound 426]", "PKC alpha kinase (Homo sapiens)", "> 5.55"),
    ("CC(C)C[C@H]1CN(c2nc(-c3n[nH]c4ncccc34)ccc2F)CCN1 [Compound 131]", "PKC alpha kinase (Homo sapiens)", "> 5.55"),
    ("CCC[C@H]1CN(c2ccc(C(F)(F)F)c(-c3n[nH]c4ncccc34)n2)CC(F)(F)CN1 [Compound 223]", "PKC alpha kinase (Homo sapiens)", "< 5.90"),
    ("COc1cccc(C2CN(c3cccc(-c4n[nH]c5ncccc45)n3)CCN2)c1 (stereo not drawn) [Compound 35]", "PKC alpha kinase (Homo sapiens)", "> 6.30"),
    ("Fc1ccc(N2CCNC(CC(F)(F)F)C2)nc1-c1n[nH]c2ncccc12 (stereo not drawn) [Compound 206]", "PKC alpha kinase (Homo sapiens)", "< 5.90"),
    ("C=Cc1ccc(N2CCNCC2)nc1-c1n[nH]c2ncccc12 [Compound 52]", "PKC alpha kinase (Homo sapiens)", "< 5.90"),
    ("CN(C)C(=O)CC1CN(c2ccc(C(F)(F)F)c(-c3n[nH]c4ncccc34)n2)CCN1 (stereo not drawn) [Compound 211]", "PKC alpha kinase (Homo sapiens)", "< 5.90"),
    ("NC1CCN(c2ccc(C(F)(F)F)c(-c3n[nH]c4ncccc34)n2)CC12CCCC2 (stereo not drawn) [Compound 464]", "PKC alpha kinase (Homo sapiens)", "> 6.30"),
    ("CC(C)CC1(CN)CCN(c2ccc(C(F)(F)F)c(-c3n[nH]c4ncccc34)n2)CC1 [Compound 466]", "PKC alpha kinase (Homo sapiens)", "< 5.90"),
]
